target: Luciferin 4-monooxygenase (Photinus pyralis) (UniProt P08659); assay: firefly luciferase enzyme inhibitors, primary screen, biochemical, luminescence, purified enzyme, 2006 set (AID 1141); conditions: SteadyGlo luminescence, 30 min, higher = more signal, called active from +8 up or from −8 down;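 also: cell-free assay with purified firefly luciferase at 100 ng per well in PBS; test concentration not given here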
Sequence (P08659 whole entry, looked up): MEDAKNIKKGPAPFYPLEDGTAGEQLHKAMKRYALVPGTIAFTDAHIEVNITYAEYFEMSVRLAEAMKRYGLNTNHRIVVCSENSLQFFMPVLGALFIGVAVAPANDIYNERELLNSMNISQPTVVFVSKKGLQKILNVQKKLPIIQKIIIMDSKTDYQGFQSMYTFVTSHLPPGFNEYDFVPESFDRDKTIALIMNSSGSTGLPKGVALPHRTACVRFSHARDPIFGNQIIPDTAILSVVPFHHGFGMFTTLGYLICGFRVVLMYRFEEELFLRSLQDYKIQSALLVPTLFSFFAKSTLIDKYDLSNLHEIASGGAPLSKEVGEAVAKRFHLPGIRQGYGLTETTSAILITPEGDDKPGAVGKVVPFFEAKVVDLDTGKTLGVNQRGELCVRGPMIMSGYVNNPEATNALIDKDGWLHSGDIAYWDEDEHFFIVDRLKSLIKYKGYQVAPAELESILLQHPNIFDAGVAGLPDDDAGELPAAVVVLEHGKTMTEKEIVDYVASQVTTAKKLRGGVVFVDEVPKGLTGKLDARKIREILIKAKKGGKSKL
Listed molecules paired with reported z-score
measured_attribute: z-score

• O=C1OCC=C[C@H]2OC34C=CCN(c5ccc(Cl)cc5)C(=O)[C@H]3N(CCCCCCO)C(=O)[C@@H]4[C@@H]12 (stereo not given in full) = -0.71
• O=C1C=CC(=O)[C@@H]2CC(COc3ccccc3)=C3[C@@H](CCc4ccccc4)OB(O)C[C@@H]3[C@H]12 = -3.18
• CCCCC(CC)C(O)C1C=CC2C(=O)N(c3ccccc3)C(=O)C2N1Nc1ccccc1 (stereo not given) = -0.15
• CC(C)NC(=O)[C@@H]1c2ccccc2C(=O)N(Cc2ccccc2Cl)[C@H]1c1ccc(CO)cc1 = -1.08
• O=C1C2C=CC(C(O)c3cccs3)N(Nc3ccccc3F)C2C(=O)N1c1ccccc1 (stereo not given) = 1.71

---

test: E. coli growth modulation, two-sided OD650, primary screen, E. coli filamentation project, strain DRC41, 24 h (AID 1093); conditions: OD650, 24 h, higher = more signal, called active from +8 up or from −8 down;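 also: MC1000 strain lacking acrAB efflux and sulA so SOS filamentation is blocked; test concentration not given here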
Classify by measured z-score: rule met if it is equal to or exceeds 0.4, rule not met if it is smaller.

• O=C1OCC=C[C@H]2OC34C=CCN(c5ccc6ccccc6c5)C(=O)[C@H]3N(CCCO)C(=O)[C@@H]4[C@@H]12 (some centres not stated) = rule met
• [N-]=[N+]=NCc1ccccc1C[C@]1(C(=O)NCCN2CCOCC2)N=C(c2ccc(OCCCO)cc2)O[C@H]1c1ccccc1N=[N+]=[N-] = rule met
• O=C1OCCC=C[C@H]2OC34C=CCN(Cc5ccccc5)C(=O)[C@H]3N(CCCO)C(=O)[C@@H]4C12 (some centres not stated) = rule met
• O=C1C2C=CC(C(O)c3ccc(B(O)O)cc3)N(Nc3ccccc3)C2C(=O)N1c1ccccc1 (configuration not stated) = rule not met
• COC(=O)[C@@]1(Cc2ccccc2)N=C(c2ccc(OCCCO)cc2)O[C@H]1c1ccccc1N=[N+]=[N-] = rule not met
• CCC(CC)C(O)C1C=CC2C(=O)N(c3ccccc3)C(=O)C2N1Nc1ccc(C#N)cc1 (configuration not stated) = rule not met
• [N-]=[N+]=Nc1ccccc1[C@@H]1OC(c2ccc(OCCCO)cc2)=N[C@]1(CCS(=O)(=O)c1ccccc1)C(=O)N1CCOCC1 = rule not met
• C=CC[C@@H](OC(=O)Nc1ccc(OC)cc1)c1ccc(O)c2ccccc12 = rule met
• CC(C)C[C@@H]1NC(=O)[C@H]2C[C@@H](C(=O)NCCCCCCNC(=O)CS)[C@@H](c3cccc(OCCO)c3)N2C1=O = rule met
• CC(C)(C)OC(=O)CC[C@@]1(C(=O)O)N=C(c2ccc(OCCCO)cc2)O[C@@H]1c1ccccc1N=[N+]=[N-] = rule met
• C=C(COC)C(=O)CC[C@H](OC(C)=O)c1cccc(OCCO)c1 = rule met
• COC(=O)[C@@]1(Cc2ccc(OC)cc2)[C@H]2c3cc(C(=O)N4CCCC4)n(Cc4ccccn4)c3C[C@H]2CN1C(=O)c1ccccc1 = rule not met
• CC(C)OC(=O)CC(=O)CC(O)c1ccc(C#N)cc1 (configuration not stated) = rule not met
• [N-]=[N+]=NCc1ccccc1[C@H]1OC(c2ccc(OCCCO)cc2)=N[C@@]1(CCS(=O)(=O)c1ccccc1)C(=O)N1CCOCC1 = rule not met
• C=CC[C@@]1(C(=O)O)N=C(c2ccc(OCCCO)cc2)O[C@@H]1c1ccccc1N=[N+]=[N-] = rule not met
• COc1cc(C(O)C2C=CC3C(=O)N(c4ccccc4)C(=O)C3N2Nc2ccc(C#N)cc2)cc(OC)c1OC (configuration not stated) = rule not met

---

molecular target: Torsin-1A-interacting protein 2 (Homo sapiens); assay: LULL1 binders on small-molecule microarray, primary screen, cell lysate, human LULL1 lysate, 635/667 nm fluorescence (AID 1092); settings: hLULL1 lysate binding, 635 nm fluorescence, higher = more signal;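 also: probe is lysate of COS7 cells overexpressing human LULL1; score merges per-feature 667 nm fluorescence with signal-to-noise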
measured_attribute: composite z-score

* COC(=O)[C@@]1(Cc2ccccc2)[C@H]2c3cc(C(=O)N(C)C)n(Cc4cc(C)n(C)n4)c3C[C@H]2CN1C(=O)c1ccccc1 | 3.96
* [N-]=[N+]=NCc1ccccc1C[C@]1(C(=O)NCC(O)CO)N=C(c2ccc(OCCCO)cc2)O[C@H]1c1ccccc1N=[N+]=[N-] (stereo partly drawn) | 2.61
* [N-]=[N+]=NCc1ccccc1C[C@@]1(C(=O)NCC(O)CO)N=C(c2ccc(OCCCO)cc2)O[C@@H]1c1ccccc1CN=[N+]=[N-] (stereo partly drawn) | 3.68
* COc1cccc(C(=O)O[C@H]2CC[C@]3(C)C4=C(CCC3C2(C)C)[C@]2(C)CC[C@H]([C@H](C)CCCC(C)C)[C@@]2(C)CC4)c1 (stereo partly drawn) | 0.385
* COC(=O)[C@@]1(Cc2ccccc2)[C@H]2c3cc(C(=O)N4CCCC4)n(Cc4ccc(C)o4)c3C[C@H]2CN1C(=O)c1ccccc1 | 2.6
* COC(=O)[C@]1(Cc2ccccc2N=[N+]=[N-])N=C(c2ccc(OCCCO)cc2)O[C@@H]1c1ccccc1N=[N+]=[N-] | 0.59
* C=CCNC(=O)[C@@H]1[C@H]2C(=O)O[C@H](c3ccccc3)[C@H](c3ccccc3)N2[C@H](c2ccccc2OCCO)[C@@]12C(=O)Nc1ccc(C#CC3=CCCCC3)cc12 | 2.75
* CN(C)C(=O)[C@]1(CCC(=O)OC(C)(C)C)N=C(c2ccc(OCCCO)cc2)O[C@@H]1c1ccccc1N=[N+]=[N-] | 3.78

---

assay: S. cerevisiae RM11-1a growth modifiers, primary screen, strain RM11-1a, OD600, basal, 24 h (AID 1177); settings: OD600, 24 h, higher = more signal, called active from +8 up or from −8 down;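 also: cultures grown under basal conditions with no added stressor; test concentration not given here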
measured_attribute: z-score

• C[C@]1(C(=O)NCc2ccccc2)c2ccccc2C(=O)N(Cc2ccc(OC(F)(F)F)cc2)[C@H]1c1ccc(CO)cc1 = -0.593
• C=C(CCCC)/C(=C/C[C@H](OC(C)=O)c1ccc(CO)o1)c1cnc2ccccc2c1 = 1.66
• Cc1cc(C)c(C(O)C2C=CC3C(=O)N(C)C(=O)C3N2Nc2ccccc2)c(C)c1 (stereo not drawn) = -0.362
• COc1cc(CO)ccc1OC(C)=O = -1.18
• O=C1C[C@]2(c3ccc([N+](=O)[O-])cc3)C(=O)N(CC(F)(F)F)c3cc(CO)ccc3[C@H]2N1CC12CC3CC(CC(C3)C1)C2 = -0.319
• CC(C)(C)OC(=O)CC[C@@]1(C(=O)O)N=C(c2ccc(OCCCO)cc2)O[C@@H]1c1ccccc1N=[N+]=[N-] = 0.0589
• C=CCOC(=O)[C@H]1[C@@H]2C(=O)O[C@@H](c3ccccc3)[C@@H](c3ccccc3)N2[C@@H](c2ccc(OCCOC(=O)[C@@H]3C[C@@H]4C(=O)N5CCC[C@H]5C(=O)N4[C@@H]3c3ccc(O)cc3)cc2)[C@]12C(=O)Nc1ccccc12 = 2.73
• COc1cccc(C(=O)O[C@H]2CC[C@]3(C)C4=C(CCC3C2(C)C)[C@]2(C)CC[C@H]([C@H](C)CCCC(C)C)[C@@]2(C)CC4)c1 (stereo partly drawn) = -1.62
• COCCOC(=O)N1C(=O)[C@@]2(c3cc(C#CCC(C(=O)OC)C(=O)OC)ccc31)[C@H](C(=O)N1CCN(c3ncccn3)CC1)[C@H]1C(=O)O[C@H](c3ccccc3)[C@H](c3ccccc3)N1[C@@H]2c1ccc(OCCO)cc1 = 1.84
• COCCOC(=O)N1C(=O)[C@@]2(c3cc(C#CCNC(N)=O)ccc31)[C@H](C(=O)N1CCN(c3ncccn3)CC1)[C@H]1C(=O)O[C@H](c3ccccc3)[C@H](c3ccccc3)N1[C@@H]2c1ccccc1OCCO = 3.47
• COc1ccc([Si](C)(C)[C@H]2[C@H](CCn3cc([C@H](O)c4ccccc4)nn3)O[C@@]3(C(=O)N(Cc4cccc(N5CCC5=O)c4)c4ccccc43)[C@@H]2C)cc1 = -0.101
• O=C1OCCC=C[C@H]2OC34C=CCN(Cc5ccccc5)C(=O)[C@H]3N(CCCCCO)C(=O)[C@@H]4C12 (stereo partly drawn) = 0.484
• CC(C)CNC(=O)[C@@]1(c2ccc([N+](=O)[O-])cc2)CC(=O)N(CC23CC4CC(CC(C4)C2)C3)[C@@H]1c1ccc(CO)cc1I = 1.69
• C=C(COC)C(=O)CC[C@@H](OC(=O)c1cccnc1)c1ccc(CO)o1 = -0.318
• CCOC(=O)C[C@H]1[C@H](OC(=O)c2ccccc2-c2ccccc2)[C@@H](NC(=O)c2ccc3ccccc3c2)c2cc(OCCCO)ccc2N1C(=O)c1ccc2ccccc2n1 = 0.876
• COC(=O)[C@@]1(Cc2ccc(F)cc2)[C@H]2c3cc(C(=O)N4CCCC4)n(Cc4cccc5ccccc45)c3C[C@H]2CN1C(=O)c1ccccc1 = 0.0161
• COc1ccc([Si](C)(C)[C@H]2[C@H](CC(=O)N(CCO)Cc3ccccc3)O[C@@]3(C(=O)N(Cc4cccc(N5CCC5=O)c4)c4ccccc43)[C@@H]2C)cc1 = 1.17
• C=CCC(OC(C)=O)[C@@H]1[C@@H](N(Cc2cccc3ccccc23)C(=O)c2ccc(C)cc2)c2cc(OCCCO)ccc2N1C(=O)Cc1ccc(OC)cc1 (stereo partly drawn) = -1.25
